Every entry's value here was drawn from patent US20260159533A1.

Target: human C1s protein (Homo sapiens, UniProt P09871)
Construct: purchased R&D Systems or Complement Technologies 2060-SE or A104
Sequence (P09871 16-688): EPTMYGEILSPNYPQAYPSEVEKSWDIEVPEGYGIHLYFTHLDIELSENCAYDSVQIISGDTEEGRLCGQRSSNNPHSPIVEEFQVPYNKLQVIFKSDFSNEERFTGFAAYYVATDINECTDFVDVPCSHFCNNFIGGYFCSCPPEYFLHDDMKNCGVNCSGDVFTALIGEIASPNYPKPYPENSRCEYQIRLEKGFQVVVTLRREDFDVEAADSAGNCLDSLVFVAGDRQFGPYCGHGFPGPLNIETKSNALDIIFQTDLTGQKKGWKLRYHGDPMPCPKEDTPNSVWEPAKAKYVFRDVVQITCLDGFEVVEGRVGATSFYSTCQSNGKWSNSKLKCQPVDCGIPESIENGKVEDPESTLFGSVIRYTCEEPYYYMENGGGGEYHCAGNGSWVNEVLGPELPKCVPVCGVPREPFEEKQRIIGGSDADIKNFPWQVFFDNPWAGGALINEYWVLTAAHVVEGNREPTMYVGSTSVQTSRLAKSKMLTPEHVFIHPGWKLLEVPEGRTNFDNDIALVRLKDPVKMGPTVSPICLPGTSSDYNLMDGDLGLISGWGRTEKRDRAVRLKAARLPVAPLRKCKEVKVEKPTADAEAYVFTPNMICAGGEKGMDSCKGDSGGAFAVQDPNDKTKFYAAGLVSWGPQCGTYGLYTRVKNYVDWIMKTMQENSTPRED
Assay: recombinant C1s enzymatic assay (YLGR-Rh110-dPro substrate hydrolysis, fluorescence)
Type: biochemical
Settings: recombinant human C1s 2.5 nM, substrate YLGR-Rh110-dPro 20 μM, 15 min pre-incubation, 60 min RT; read-out: rec. hC11s pIC50 (converted)
Structures can show the parent of a compound that is named as a salt.
The following molecules are listed with their measured IC50 values.
Reply numerically in nM, unit not repeated.

These solved cases illustrate the format of a correct answer.
- molecule: "Nc1cnnc2cc(-c3cc(B(O)O)ccc3-n3ccnc3)ccc12"
  uom: "nM"
  IC50: 66.1
- molecule: "Cc1cc(-c2cc[nH]n2)c(-c2ccc3c(N)cnnc3c2)cc1B(O)O"
  uom: "nM"
  IC50: 24.5

[ask] Please give the measured IC50 for this molecule: CC1(C)COc2cc(-n3cccn3)c(-c3ccc4c(N)cnnc4c3)cc2B(O)O1
[reply] 1.58

[ask] # get_value(readout='IC50', item= COc1cc(-n2cc(OC(F)(F)F)cn2)c(-c2ccc3c(N)cnnc3c2)cc1B(O)O [Example 85, formic acid salt] )
[reply] 1.2

[ask] Quick one: IC50 for COC(=O)c1cn(-c2ccc(B(O)O)cc2-c2ccc3c(N)cnnc3c2)cn1 ?
[reply] 38.9

[ask] Field request: IC50 | item: CNC(=O)c1ccn(-c2ccc(B(O)O)cc2-c2ccc3c(N)cnnc3c2)n1
[reply] 29.5

[ask] Entry under review: Nc1cnnc2cc(-c3cc(B(O)O)ccc3-c3cc(C(F)(F)F)[nH]n3)ccc12 . Reported IC50?
[reply] 34.7

[ask] Using the record for Nc1cnnc2cc(-c3cc(B(O)O)ccc3-n3ccc(C(F)F)n3)ccc12 [Example 14, formic acid salt] , report its IC50.
[reply] 14.8

[ask] # lookup: IC50 of Nc1cnnc2cc(-c3cc(B(O)O)ccc3-n3cc(F)cn3)ccc12 [Example 11, formic acid salt]
[reply] 1.45

[ask] Please report the recorded IC50 for Nc1cnnc2cc(-c3cc(B(O)O)ccc3-c3nc[nH]n3)ccc12 .
[reply] 0.776

[ask] Name the reported IC50 value associated with the molecule CC1COc2cc(-n3cccn3)c(-c3ccc4c(N)cnnc4c3)cc2B(O)O1 (single isomer, unassigned; enantiomer 1) [Example 72]
[reply] 1.7

[ask] # query: IC50 of entry CC1COB(O)c2cc(-c3ccc4c(N)cnnc4c3)c(-n3cccn3)cc2O1 (centres unmarked)
[reply] 2.09
